Tested Target: T1, TNFR1 (Homo sapiens, UniProt P19438)
T1 chain: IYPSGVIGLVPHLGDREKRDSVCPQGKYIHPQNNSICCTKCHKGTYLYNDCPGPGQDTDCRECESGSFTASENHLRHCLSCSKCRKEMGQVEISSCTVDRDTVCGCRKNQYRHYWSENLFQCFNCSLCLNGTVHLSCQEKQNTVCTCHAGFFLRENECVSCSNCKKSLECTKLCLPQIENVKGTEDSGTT
Assay: yeast display SC50
Short version: apparent Kd (screen) at least 0.9 nM is met, less is not met.

Binder	Assigned Label
A42L (designed binder) MTLQELLREEALRRAEAEAFRYALELLAEKFPEQKEYLLDLLEEIESQIRSLSGVDVEDVRKFLDKEWAWVKELLAEHPAELAEVEAARAARLAELRAEVEAKVAA	met
A28C (designed binder) MTLQELLREEALRRAEAEAFRYALELLCEKFPEQKEYLLDLAEEIESQIRSLSGVDVEDVRKFLDKEWAWVKELLAEHPAELAEVEAARAARLAELRAEVEAKVAA	met
E84D (designed binder) MTLQELLREEALRRAEAEAFRYALELLAEKFPEQKEYLLDLAEEIESQIRSLSGVDVEDVRKFLDKEWAWVKELLAEHPAELADVEAARAARLAELRAEVEAKVAA	not met
G54A (designed binder) MTLQELLREEALRRAEAEAFRYALELLAEKFPEQKEYLLDLAEEIESQIRSLSAVDVEDVRKFLDKEWAWVKELLAEHPAELAEVEAARAARLAELRAEVEAKVAA	met

Attention now turns to another entry.
## Input Could you please find out whether E84K (designed binder) MTLQELLREEALRRAEAEAFRYALELLAEKFPEQKEYLLDLAEEIESQIRSLSGVDVEDVRKFLDKEWAWVKELLAEHPAELAKVEAARAARLAELRAEVEAKVAA has apparent Kd (screen) that meets 0.9 nM or exceeds it?
## Output not met
